Test: Intrinsic clearance in mouse liver microsome in presence of NADPH-regenerating system incubated over 60 mins by LC-MS analysis
Conditions: microsomes, 1 h
Listed here are compounds together with their documented CLH.

- smilesStructure: "CC1(C)NC(=O)N(c2ccc(F)c(C(F)(F)F)c2)C1=O"
  rel: "<"
  CLH, µL/min/mg: 7
- smilesStructure: "CC1(C)CC(=O)N(c2ccc(F)c(C(F)(F)F)c2)C1=O"
  rel: "="
  CLH, µL/min/mg: 10
- smilesStructure: "CC1(C)C(=O)N(c2ccc(F)c(C(F)(F)F)c2)C(=O)N1CCc1ccccc1"
  rel: "="
  CLH, µL/min/mg: 740
- smilesStructure: "CC1(C)CNC(=O)N(c2ccc(F)c(C(F)(F)F)c2)C1=O"
  rel: "="
  CLH, µL/min/mg: 15
- smilesStructure: "O=C1CNC(=O)N1c1ccc(F)c(C(F)(F)F)c1"
  rel: "="
  CLH, µL/min/mg: 13

----------
Assay: Octanol/water partition coefficient, logD of the compound at pH 7.4 by HPLC analysis
Listed here are molecules together with their documented logD.
recordedMetric: logD

- molecule: "O=C1C2CCCN2C(=O)N1c1ccc(F)c(C(F)(F)F)c1 (stereo unspecified)"
  recordedMetric: "logD"
  endpointValue: 3
- molecule: "CC1(C)NC(=O)N(c2ccc(Cl)c(C(F)(F)F)c2)C1=O"
  recordedMetric: "logD"
  endpointValue: 3
- molecule: "O=C(C1CCCCC1)N1CC(=O)N2CCc3ccccc3C2C1 (stereo unspecified)"
  recordedMetric: "logD"
  endpointValue: 3
- molecule: "CC1(C)C(=O)N(c2ccc(F)c(C(F)(F)F)c2)C(=O)N1CC#N"
  recordedMetric: "logD"
  endpointValue: 3.4
- molecule: "CCN1C(=O)N(c2ccc(F)c(C(F)(F)F)c2)C(=O)C1(C)C"
  recordedMetric: "logD"
  endpointValue: 3.5
- molecule: "CC1(C)NC(=O)N(Cc2ccc(F)c(C(F)(F)F)c2)C1=O"
  recordedMetric: "logD"
  endpointValue: 2.9

----------
Listed here are compounds together with their documented logD.
Experiment: Octanol/water partition coefficient, logD of the compound at pH 7.4 by HPLC analysis

- smilesStructure: "CC1(C)CNC(=O)N(c2ccc(F)c(C(F)(F)F)c2)C1=O"
  logD: 2.5
- smilesStructure: "O=C1NC2(CCCCC2)C(=O)N1c1ccc(F)c(C(F)(F)F)c1"
  logD: 3.5
- smilesStructure: "CC1(C)C(=O)N(c2ccc(F)c(C(F)(F)F)c2)C(=O)N1CC(N)=O"
  logD: 2.2
- smilesStructure: "CC1(C)NC(=O)N(c2ccnc(C(F)(F)F)c2)C1=O"
  logD: 1.9
- smilesStructure: "CC1(C)NC(=O)N(c2ccc(F)c(C(F)(F)F)c2)C1=O"
  logD: 2.7
- smilesStructure: "CC(C)(NC(=O)Nc1ccc(F)c(C(F)(F)F)c1)C(=O)O"
  logD: 1.1

----------
Assay: Intrinsic clearance in human liver microsome in presence of NADPH-regenerating system incubated over 60 mins by LC-MS analysis
Conditions: microsomes, 1 h

- compound: "CC1(C)CC(=O)N(c2ccc(F)c(C(F)(F)F)c2)C1=O"
  CLH: "11 µL/min/mg"
- compound: "CN1C(=O)N(c2ccc(F)c(C(F)(F)F)c2)C(=O)C1(C)C"
  CLH: "16 µL/min/mg"
- compound: "O=C1C2CCCN2C(=O)N1c1ccc(F)c(C(F)(F)F)c1 (stereo not drawn)"
  CLH: "30 µL/min/mg"
- compound: "CC1(C)NC(=O)N(c2ccncc2)C1=O"
  CLH: "< 7 µL/min/mg"
- compound: "O=C1NC2(CCCC2)C(=O)N1c1ccc(F)c(C(F)(F)F)c1"
  CLH: "33 µL/min/mg"
- compound: "CC1(C)NC(=O)N(c2ccc(C(F)(F)F)nc2)C1=O"
  CLH: "< 7 µL/min/mg"
- compound: "CC1(C)NC(=O)C(c2ccc(F)c(C(F)(F)F)c2)C1=O (stereo not drawn)"
  CLH: "< 7 µL/min/mg"
- compound: "Cc1ccc(N2C(=O)NC(C)(C)C2=O)cc1C(F)(F)F"
  CLH: "< 7 µL/min/mg"
- compound: "CC1(C)NC(=O)N(c2ccnc3ccccc23)C1=O"
  CLH: "< 7 µL/min/mg"
- compound: "O=C1CNC(=O)N1c1ccc(F)c(C(F)(F)F)c1"
  CLH: "< 7 µL/min/mg"
- compound: "CC1(C)NC(=O)N(c2cccc(C(F)(F)F)c2)C1=O"
  CLH: "< 7 µL/min/mg"
- compound: "CC1(C)CN(c2ccc(F)c(C(F)(F)F)c2)C(=O)N1"
  CLH: "< 7 µL/min/mg"
- compound: "CC1(C)C(=O)N(c2ccc(F)c(C(F)(F)F)c2)C(=O)N1S(=O)(=O)c1ccccc1"
  CLH: "210 µL/min/mg"
- compound: "CC(C)(NC(=O)Nc1ccc(F)c(C(F)(F)F)c1)C(=O)O"
  CLH: "< 7 µL/min/mg"
- compound: "CC1(C)NC(=O)N(c2ccc(F)c(C(F)(F)F)c2)C1=O"
  CLH: "8 µL/min/mg"
- compound: "CC1(C)C(=O)N(c2ccc(F)c(C(F)(F)F)c2)C(=O)N1CCc1ccccc1"
  CLH: "> 870 µL/min/mg"
- compound: "CC1(C)NC(=O)N(c2ccc(F)c(C#N)c2)C1=O"
  CLH: "< 7 µL/min/mg"
- compound: "CC1(C)C(=O)N(c2ccc(F)c(C(F)(F)F)c2)C(=O)N1S(C)(=O)=O"
  CLH: "< 7 µL/min/mg"
- compound: "CC1(C)C(=O)N(c2ccc(F)c(C(F)(F)F)c2)C(=O)N1CC(N)=O"
  CLH: "< 7 µL/min/mg"
- compound: "O=C1NC2(CCCCC2)C(=O)N1c1ccc(F)c(C(F)(F)F)c1"
  CLH: "25 µL/min/mg"
- compound: "CC1(C)NC(=O)N(c2ccc([N+](=O)[O-])c(C(F)(F)F)c2)C1=O [NILUTAMIDE]"
  CLH: "< 7 µL/min/mg"
- compound: "CC1(C)NC(=O)N(Cc2ccc(F)c(C(F)(F)F)c2)C1=O"
  CLH: "17 µL/min/mg"
- compound: "CC1(C)NC(=O)N(c2cccnc2)C1=O"
  CLH: "< 7 µL/min/mg"

----------
Listed here are compounds together with their documented CLH.
Test: Intrinsic clearance in human liver microsome in presence of NADPH-regenerating system incubated over 60 mins by LC-MS analysis
Details: microsomes, 1 h
recordedMetric: CLH

- compound: "CC1(CO)NC(=O)N(c2ccc(F)c(C(F)(F)F)c2)C1=O (stereo not given)"
  endpointValue: "< 7 µL/min/mg"
- compound: "CC1(C)CNC(=O)N(c2ccc(F)c(C(F)(F)F)c2)C1=O"
  endpointValue: "9 µL/min/mg"
- compound: "CC1(C)NC(=O)N(c2cnccn2)C1=O"
  endpointValue: "< 7 µL/min/mg"
- compound: "CC1(C)NC(=O)N(c2ccc(F)c(C(F)F)c2)C1=O"
  endpointValue: "< 7 µL/min/mg"
- compound: "CC1(C)C(=O)NC(=O)N1c1ccc(F)c(C(F)(F)F)c1"
  endpointValue: "< 7 µL/min/mg"

----------
Experiment: Kinetic solubility of the compound in 0.01 M HCl at pH 2 by nephelometry
Format: physicochemical
Details: read-out: Kinetic_solubility
recordedMetric: solubility kinetic

- compound: "CC1(C)CC(=O)N(c2ccc(F)c(C(F)(F)F)c2)C1=O"
  endpointValue: "12.5 µg/mL"
- compound: "CC1(C)NC(=O)N(c2ccncc2)C1=O"
  endpointValue: "50 µg/mL"
- compound: "CC1(C)NC(=O)N(c2ccc(C(F)(F)F)nc2)C1=O"
  endpointValue: "> 100 µg/mL"
- compound: "CC1(C)NC(=O)N(c2ccnc3ccccc23)C1=O"
  endpointValue: "> 100 µg/mL"
- compound: "Cc1ccc(N2C(=O)NC(C)(C)C2=O)cc1C(F)(F)F"
  endpointValue: "> 100 µg/mL"
- compound: "CC1(C)NC(=O)N(Cc2ccc(F)c(C(F)(F)F)c2)C1=O"
  endpointValue: "50 µg/mL"
- compound: "CC1(C)NC(=O)N(c2cccc(C(F)(F)F)c2)C1=O"
  endpointValue: "> 100 µg/mL"
- compound: "CC1(CO)NC(=O)N(c2ccc(F)c(C(F)(F)F)c2)C1=O (stereo not drawn)"
  endpointValue: "25 µg/mL"
- compound: "CC1(C)C(=O)NC(=O)N1c1ccc(F)c(C(F)(F)F)c1"
  endpointValue: "25 µg/mL"
- compound: "O=C1NC2(CCCCC2)C(=O)N1c1ccc(F)c(C(F)(F)F)c1"
  endpointValue: "3.1 µg/mL"
- compound: "CC1(C)NC(=O)N(c2ccc(Cl)c(C(F)(F)F)c2)C1=O"
  endpointValue: "> 100 µg/mL"
- compound: "O=C1NC2(CCCC2)C(=O)N1c1ccc(F)c(C(F)(F)F)c1"
  endpointValue: "50 µg/mL"
- compound: "CC1(C)OC(=O)N(c2ccc(F)c(C(F)(F)F)c2)C1=O"
  endpointValue: "3.1 µg/mL"
- compound: "CC1(C)NC(=O)N(c2ccc(F)c(C(F)(F)F)c2)C1=O"
  endpointValue: "> 100 µg/mL"
- compound: "CN1C(=O)N(c2ccc(F)c(C(F)(F)F)c2)C(=O)C1(C)C"
  endpointValue: "50 µg/mL"
- compound: "O=C(C1CCCCC1)N1CC(=O)N2CCc3ccccc3C2C1 (stereo not drawn) [PRAZIQUANTEL]"
  endpointValue: "> 100 µg/mL"
- compound: "CC1(C)NC(=O)N(c2ccc([N+](=O)[O-])c(C(F)(F)F)c2)C1=O [NILUTAMIDE]"
  endpointValue: "50 µg/mL"
- compound: "CC1(C)CN(c2ccc(F)c(C(F)(F)F)c2)C(=O)N1"
  endpointValue: "12.5 µg/mL"
- compound: "O=C1CNC(=O)N1c1ccc(F)c(C(F)(F)F)c1"
  endpointValue: "> 100 µg/mL"
- compound: "CC1(C)C(=O)N(c2ccc(F)c(C(F)(F)F)c2)C(=O)N1S(=O)(=O)c1ccccc1"
  endpointValue: "< 1.6 µg/mL"
- compound: "CC1(C)NC(=O)N(c2ccnc(C(F)(F)F)c2)C1=O"
  endpointValue: "> 100 µg/mL"
- compound: "CC1(C)NC(=O)N(c2cnccn2)C1=O"
  endpointValue: "> 100 µg/mL"
- compound: "CC1(C)NC(=O)N(c2ccc(F)c(C(F)F)c2)C1=O"
  endpointValue: "> 100 µg/mL"
